# target entity: HDAC1 (Homo sapiens (Human), UniProt Q13547)
# Sequence (Q13547 whole entry): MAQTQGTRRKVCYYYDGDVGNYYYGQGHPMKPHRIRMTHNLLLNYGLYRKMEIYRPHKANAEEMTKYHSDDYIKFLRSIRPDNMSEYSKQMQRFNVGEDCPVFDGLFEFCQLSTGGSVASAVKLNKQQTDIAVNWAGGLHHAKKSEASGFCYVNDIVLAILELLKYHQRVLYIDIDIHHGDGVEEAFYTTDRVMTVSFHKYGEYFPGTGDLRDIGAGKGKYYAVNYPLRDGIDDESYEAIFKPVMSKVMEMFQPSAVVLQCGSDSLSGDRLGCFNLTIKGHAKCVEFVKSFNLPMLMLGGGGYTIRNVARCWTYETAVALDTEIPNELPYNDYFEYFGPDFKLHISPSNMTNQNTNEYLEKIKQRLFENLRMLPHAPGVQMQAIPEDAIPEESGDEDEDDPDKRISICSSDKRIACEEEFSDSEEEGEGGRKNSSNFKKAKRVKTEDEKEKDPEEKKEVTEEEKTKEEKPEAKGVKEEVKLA
# assay method text: HDAC in vitro enzymatic assay (fluorescence)
# settings: read-out: IC50 HDAC1; selectivity profiling; top concentration 200 μM
Where a name gives a salt, the structure may show the parent alone.
reported metric: IC50

Please review the entries below; each comes with its answer.
INSERT INTO assay_data (compound, experimental_value) VALUES
  ('CC(C)c1ccc(-c2nc3cc(C(=O)NO)ccc3n2C)cc1', '1600 nM'),
  ('O=C(NO)c1ccc2nc(-c3ccc(-c4ccc(CN5CCOCC5)cc4)cc3)[nH]c2c1 [Example 190, trifluoroacetate]', '4000 nM'),
  ('Cn1c(-c2ccc(-c3ccccc3)cc2)nc2cc(C(=O)NO)ccc21', '326 nM');

Look up IC50: O=C(NO)c1ccc2nc(-c3ccccc3-c3ccccc3)[nH]c2c1
4000 nM
